Let's look at some compounds and their measured %Inh.
test system: PRKD2; settings: concentration: 1 μM, replicates: in singlicate; n = 1;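 note: KINOMEscan kinase panel screen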

given smiles	assayed system	unit tag	%Inh
CN1CCC(n2cnc(-c3ccc(F)cc3)c2-c2ccnc(NC3CCNCC3)n2)CC1	PRKD2	%	0
CNc1nccc(-c2c(-c3ccc(F)cc3)ncn2CCCN2CCOCC2)n1	PRKD2	%	0
Cc1ccc(NC(=O)c2cccc(C#N)c2)cc1-c1ccc(C(=O)Nc2ccncc2)cc1	PRKD2	%	12

---

system: NEK3; conditions: concentration: 1 μM, replicates: in singlicate; n = 1
Consider the following molecules and their measured %Inh readings.
measured attribute: %Inh (%)

molecule	observed
Nc1n[nH]c2nnc(-c3ccccc3)cc12	29
NC(=O)c1sc(-n2cnc3ccccc32)cc1OCc1ccccc1F	0
CSc1ccc(NC2=C(c3ccccc3Cl)C(=O)NC2=O)cc1	0
CNc1nccc(-c2c(-c3ccc(F)cc3)ncn2CCCN2CCOCC2)n1	17
Fc1cccc(COc2ccc(Nc3ncnc4nn5ccccc5c34)cc2Cl)c1	0
CC(=O)Nc1n[nH]c2ncc(-c3ccccc3)cc12	20
Fc1cccc(COc2ccc(Nc3ncnc4cc[nH]c34)cc2Cl)c1	12
Nc1nc(-c2cccnc2)c(-c2ccnc3ccccc23)s1	2
Clc1ccc(-c2cc(-c3c[nH]nc3-c3ccccn3)ccn2)cc1	3
O=C(Nc1ccccc1F)NC1CCN(c2ccnc(Nc3ccc(F)cc3)n2)C1 (stereo not drawn)	4
Cn1cc(-c2ccc3c(c2)CCN3C(=O)Cc2cccc(C(F)(F)F)c2)c2c(N)ncnc21	0
CNc1nccc(-c2c(-c3ccc(F)cc3)ncn2C2CCN(C)CC2)n1	17
COc1cc2c(Nc3cccc(NC(=O)c4ccccc4)c3)ncnc2cc1OCCCN1CCOCC1	0
Cn1ccc2ncnc(Oc3ccc(NC(=O)Nc4cccnc4)c(Cl)c3)c21	9
Cl.c1ccc(Cn2ncc3cc(Nc4ncnc5ccccc45)ccc32)cc1	2
O=C(Nc1n[nH]c2nc(-c3ccco3)c(Br)cc12)c1ccc(CN2CCCC2)cc1.O=C(O)[C@H](O)[C@@H](O)C(=O)O	0
Fc1ccc(-c2ncn(CCCNCc3ccccc3)c2-c2ccncc2)cc1	31
Nc1nc(-c2ccc3c(N)n[nH]c3c2)cc(N2CCCCC2)n1	0
Cl.Cn1ccc(-c2cccc(Nc3ccnc4cc(-c5nccs5)ccc34)c2)n1	17
Cc1ccc(NC(=O)c2cccc(C#N)c2)cc1-c1ccc(C(=O)Nc2ccncc2)cc1	25
Fc1cccc(COc2ccc(Nc3ncnc4sc(-c5ccc[nH]5)cc34)cc2Cl)c1	1
CCn1c(-c2ccncc2)nc2cnccc21	14
FC(F)(F)c1cc(Nc2nccc(-c3c(-c4ccc(Cl)cc4)nn4ncccc34)n2)ccc1Cl	2
Cl.Fc1ccccc1COc1ccc(Nc2ncnc3ccc(-c4nnc(C(F)(F)F)o4)cc23)cc1Cl	0
C[C@H]1CC[C@@H](C(=O)Nc2ccccc2)CN1c1cc(-c2ccc3c(N)n[nH]c3c2)nc(N)n1	1
CCc1nc(-c2cccc(C)c2)c(-c2ccnc(NC(=O)c3ccccc3)c2)s1	27
CS(=O)(=O)CCNCc1nc(-c2ccc3ncnc(Nc4ccc(OCc5cccc(F)c5)c(Cl)c4)c3c2)cs1.Cl	3

Values from paper PMC5540273
